Target: PAK4 Kinase domain (PAK4 KD) (Homo sapiens, UniProt O96013)
Construct: Cloning, expression, and purification of recombinant PAK4 Kinase domain (PAK4 KD); His tag (pET28a(+)/pET24a(+), Ni-NTA purification) (N, cleaved yes); GST (pGST4.5, glutathione column) (N, cleaved yes)
Sequence (O96013 321-572 limits assumed): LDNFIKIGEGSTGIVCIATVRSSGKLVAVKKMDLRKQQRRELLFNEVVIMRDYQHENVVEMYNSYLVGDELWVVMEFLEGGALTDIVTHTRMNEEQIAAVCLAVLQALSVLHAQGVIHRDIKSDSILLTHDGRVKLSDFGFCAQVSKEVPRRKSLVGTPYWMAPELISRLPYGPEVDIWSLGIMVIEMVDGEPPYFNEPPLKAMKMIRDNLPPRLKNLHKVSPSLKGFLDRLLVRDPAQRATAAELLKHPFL
Test: PAK4 kinase domain enzymatic assay (PK/LDH-coupled, Ki)
Conditions: PAK4 Kinase Domain
pKi: −log10 of the molar value.
recorded_endpoint: pKi

Example molecules with recorded pKi:
> print(dat)
                            chemical.string  recorded.endpoint  recorded.measurement
1  CN(C)C[C@@H](OC(=O)N1Cc2c(NC(=O)[C@@H]3C[C@H]3c3ccccc3)n[nH]c2C1(C)C)c1ccccn1                pKi                  7.57
2  CN(C)C[C@@H](NC(=O)N1Cc2c(NC(=O)Cc3ccc(F)cc3)n[nH]c2C1(C)C)c1ccccc1                pKi                  7.39
3  CN(C)C[C@@H](OC(=O)N1Cc2c(NC(=O)C3CCOCC3)n[nH]c2C1(C)C)c1ccccc1                pKi                  6.54
4  CN(C)C[C@@H](OC(=O)N1Cc2c(NC(=O)C(C)(C)C)n[nH]c2C1(C)C)c1ccccc1                pKi                  7.12
5  CN(C)C[C@@H](OC(=O)N1Cc2c(NC(=O)C3CCCC3)n[nH]c2C1(C)C)c1ccccc1                pKi                  7.02
6  CN(C)C[C@@H](OC(=O)N1Cc2c(NC(=O)c3ccccc3F)n[nH]c2C1(C)C)c1ccccn1                pKi                  6.56
7  CC(C)C[C@@H](CN(C)C)OC(=O)N1Cc2c(NC(=O)C3CCC3)n[nH]c2C1(C)C                pKi                  6.12

P: CN(C)C[C@H](c1ccccc1)N(C)C(=O)N1Cc2c(NC(=O)c3ccccc3)n[nH]c2C1(C)C
Q: CN(C)C[C@@H](OC(=O)N1Cc2c(NC(=O)C3CCC3)n[nH]c2C1(C)C)c1ccccc1
Parameter metric = pKi. Return the lower-valued option from P and Q . Which one? Tell me its label.
P
(P: 6.29, Q: 7.00)
